Assay: physchem
Settings: 25 °C, water, thermodynamic from solid
This section presents compounds with their documented solubility at 30 min values.

Use the examples below as a reference point.
INSERT INTO assay_data (compound, metric, result) VALUES
  ('CN[C@H](CC(C)C)C(=O)N[C@@H]1C(=O)NC(CC(N)=O)C(=O)NC2C(=O)NC3C(=O)N[C@H](C(=O)NC(C(=O)O)c4cc(O)cc(O)c4-c4cc3ccc4O)[C@H](O)c3ccc(c(Cl)c3)Oc3cc2cc(c3OC2OC(CO)C(O)C(O)C2OC2CC(C)(NCC(OCc3ccc(Cl)cc3)C(=O)O)C(O)C(C)O2)Oc2ccc(cc2Cl)C1O (stereo partly drawn)', 'solubility at 30 min', '> 8 mg/mL'),
  ('CN[C@H](CC(C)C)C(=O)N[C@@H]1C(=O)NC(CC(N)=O)C(=O)NC2C(=O)NC3C(=O)N[C@H](C(=O)NC(C(=O)O)c4cc(O)cc(O)c4-c4cc3ccc4O)[C@H](O)c3ccc(c(Cl)c3)Oc3cc2cc(c3OC2OC(CO)C(O)C(O)C2OC2CC(C)(NCC(OCc3ccc(-c4ccccc4)cc3)C(=O)OC)C(O)C(C)O2)Oc2ccc(cc2Cl)C1O (stereo partly drawn)', 'solubility at 30 min', '< 5 mg/mL'),
  ('CN[C@H](CC(C)C)C(=O)NC1C(=O)N[C@@H](CC(N)=O)C(=O)N[C@H]2C(=O)NC3C(=O)N[C@H](C(=O)N[C@@H](C(=O)O)c4cc(O)cc(O)c4-c4cc3ccc4O)[C@H](O)c3ccc(c(Cl)c3)Oc3cc2cc(c3OC2OC(CO)C(O)C(O)C2OC2CC(C)(NCC(OCc3ccc(C)cc3)C(=O)O)C(O)C(C)O2)Oc2ccc(cc2Cl)[C@H]1O (stereo partly drawn)', 'solubility at 30 min', '> 8 mg/mL');

In one line, give reported solubility at 30 min of the entry CN[C@H](CC(C)C)C(=O)N[C@@H]1C(=O)NC(CC(N)=O)C(=O)NC2C(=O)NC3C(=O)N[C@H](C(=O)NC(C(=O)O)c4cc(O)cc(O)c4-c4cc3ccc4O)[C@H](O)c3ccc(c(Cl)c3)Oc3cc2cc(c3OC2OC(CO)C(O)C(O)C2OC2CC(C)(NCC(OCc3ccc(-c4ccc(Cl)cc4)cc3)C(=O)OC)C(O)C(C)O2)Oc2ccc(cc2Cl)C1O (stereo partly drawn) .
50 to 60 mg/mL

In one line, give reported solubility at 30 min of the entry CN[C@H](CC(C)C)C(=O)N[C@@H]1C(=O)NC(CC(N)=O)C(=O)NC2C(=O)NC3C(=O)N[C@H](C(=O)NC(C(=O)O)c4cc(O)cc(O)c4-c4cc3ccc4O)[C@H](OC3CC(C)(N)C(O)C(C)O3)c3ccc(c(Cl)c3)Oc3cc2cc(c3OC2OC(CO)C(O)C(O)C2OC2CC(C)(NCC(OCc3ccc(-c4ccccc4Cl)cc3)C(=O)O)C(O)C(C)O2)Oc2ccc(cc2Cl)C1O (stereo partly drawn) .
5 to 20 mg/mL

In one line, give reported solubility at 30 min of the entry CCCOC(CNC1(C)CC(OC2C(Oc3c4cc5cc3Oc3ccc(cc3Cl)[C@@H](O)[C@@H]3NC(=O)C(NC(=O)C5NC(=O)C(CC(N)=O)NC(=O)[C@@H](NC(=O)[C@H](N)CC(C)C)C(O)c5ccc(c(Cl)c5)O4)c4ccc(O)c(c4)-c4c(O)cc(O)cc4C(C(=O)O)NC3=O)OC(CO)C(O)C2O)OC(C)C1O)C(=O)O (stereo partly drawn) .
> 60 mg/mL
